Test: small-molecule microarray binders of probe aLefty2, primary screen, biochemical, biotinylated probe, 635/667 nm fluorescence (AID 1094);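 further: score merges spot fluorescence near 667 nm with spot signal-to-noise ratio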
Conditions: higher = more signal
// map composite z-score onto a label; ranges lowest = under -0.08, middle = from -0.08 up to 0.04, highest = 0.04 and over

Reference set, count: 10
Assign a category based on measured composite z-score for O=C1C[C@@H](O)[C@@H](O)[C@@H]2[C@@H]3C(=O)N(c4cccc(Oc5ccccc5)c4)C(=O)[C@@H]3CC[C@@H]12 and give only the class name.
lowest

Assign a category based on measured composite z-score for COC(=O)CC=C[C@H](C)[C@H](CO)NS(=O)(=O)c1ccc(C)cc1 and give only the class name.
lowest

Assign a category based on measured composite z-score for COC(=O)[C@@H]1N=C(c2ccc(OCCCO)cc2)O[C@@H]1c1ccccc1N=[N+]=[N-] and give only the class name.
highest

Assign a category based on measured composite z-score for C=C(COC)/C(=C/C[C@H](OC(=O)c1ccncc1)c1ccc(CO)o1)c1cc(C(=O)OC)ccc1OC and give only the class name.
highest

Assign a category based on measured composite z-score for COC(=O)[C@H](C)NC(=O)CCC1CC(OC(=O)NCCc2ccc(F)cc2)CC2(CCCC(COC(=O)NCC(c3ccccc3)c3ccccc3)O2)O1 (stereo partly specified) and give only the class name.
lowest

Assign a category based on measured composite z-score for COC(=O)[C@@]1(Cc2ccc(F)cc2)[C@@H]2C(=CC(=O)[C@H]2CC(=O)C(=O)N(C)C)CN1C(=O)c1ccccc1 and give only the class name.
highest

Assign a category based on measured composite z-score for C=C(/C(=C/C[C@@H](OC(=O)c1ccncc1)c1ccc(OCCO)cc1)c1cnc2ccccc2c1)C(C)C and give only the class name.
middle

Assign a category based on measured composite z-score for COCCOC(=O)N1C(=O)[C@@]2(c3cc(C#CC4(O)CCCCCC4)ccc31)[C@H](C(=O)N1CCN(c3ncccn3)CC1)[C@H]1C(=O)O[C@H](c3ccccc3)[C@H](c3ccccc3)N1[C@@H]2c1ccc(OCCO)cc1 and give only the class name.
middle

Assign a category based on measured composite z-score for COC(=O)[C@H](C)NC(=O)CCC1CC(OC(=O)NCc2ccc3c(c2)OCO3)CC2(CCCC(COC(=O)NCCOc3ccccc3)O2)O1 (stereo partly specified) and give only the class name.
lowest

Assign a category based on measured composite z-score for COC(=O)[C@H](C)NC(=O)CCC1CC(OC(=O)NCc2cccc3ccccc23)CC2(CCCC(COC(=O)NCC3CCCCC3)O2)O1 (stereo partly specified) and give only the class name.
lowest

Turning now to a further compound:
Assign a category based on measured composite z-score for CC(C)C[C@@H]1NC(=O)[C@H]2C[C@@H](C(=O)NCCCCCCN(C)C)[C@@H](c3cccc(OCCO)c3)N2C1=O and give only the class name.
highest
